Listing of entries alongside the reported pKd.
biological target: T1, IGF-IR-Fc (human, UniProt P08069 31-932); experiment: SPR (BIAcore); IGF-IR-Fc captured on Protein A, clone in solution
T1 construct: range 1-932; Made in house by transient transfection, captured on Protein A on CM5 chips for kinetic analysis; also called human IGF-IR-Fc fusion protein; recombinant, immobilized IGF-IR (BIAcore); not shown: hinge and constant regions of human IgG1
pKd: −log10 of the molar value.
propertyName: pKd

>>> measvalue("386A03 (designed binder, FG loop optimized derivative of 338A06) VSDVPRDLEVVAATPTSLLISWSARLKVARYYRITYGETGGNSPVQEFTVPKNVYTATISGLKPGVDYTITVYAVTNLRDYGPISINYRTHHHHHH")
10.06
>>> measvalue("386F10 (designed binder, FG loop optimized derivative of 338A06) VSDVPRDLEVVAATPTSLLISWSARLKVARYYRITYGETGGNSPVQEFTVPKNVYTATISGLKPGVDYTITVYAVTLLRDYGPISINYRTHHHHHH")
9.91
>>> measvalue("387B01 (designed binder, FG loop optimized derivative of 338A06) VSDVPRDLEVVAATPTSLLISWSARLKVARYYRITYGETGGNSPVQEFTVPKNVYTATISGLKPGVDYTITVYAVTSLRDYGPISINYRTHHHHHH")
10.17
>>> measvalue("385A08 (designed binder, FG loop optimized derivative of 338A06; also called clone 385A08; unmodified 385A08) VSDVPRDLEVVAATPTSLLISWSARLKVARYYRITYGETGGNSPVQEFTVPKNVYTATISGLKPGVDYTITVYAVTRFRDYQPISINYRTHHHHHH")
10.47
